Reported kcat, Enzyme SEQ ID NO: 2: rPro-hCD-FM2 by item:
# experimental-system: rPro-hCD-FM2 ADAMTS-7 (SEQ ID NO: 2) (Homo sapiens, UniProt Q9UKP4, A119V/A123T/A127T/A171V/A193G/A200T/A28V/A36P/A42G/A66V/A78S/A97T/D77A/DEL186-188/DEL228-233/E133D/E190K/E213K/E83Q/G114S/G115N/G117S/G196D/G27H/H100Y/H124S/H234Q/K153R/L143F/L192S/L20I/P189H/P201S/P29L/P33S/P79S/Q235K/Q99P/R118N/R122Q/R174Q/R195Q/R215Q/R218H/R35L/R75A/R76Q/R87Q/R92L/S170E/S199R/S202G/S214H/T110I/T125V/V182M/V208G/V74A/W225K/Y209S)
# Construct: rat ADAMTS-7 signal peptide + prodomain (rat 1-217, Q216K), fusion partner (N); 2xStrep tag (C); 6xHis tag (C); made in house; host or cells: Expi293 cells
# Sequence (Q9UKP4 with tags, fused parts or gaps with the stated changes): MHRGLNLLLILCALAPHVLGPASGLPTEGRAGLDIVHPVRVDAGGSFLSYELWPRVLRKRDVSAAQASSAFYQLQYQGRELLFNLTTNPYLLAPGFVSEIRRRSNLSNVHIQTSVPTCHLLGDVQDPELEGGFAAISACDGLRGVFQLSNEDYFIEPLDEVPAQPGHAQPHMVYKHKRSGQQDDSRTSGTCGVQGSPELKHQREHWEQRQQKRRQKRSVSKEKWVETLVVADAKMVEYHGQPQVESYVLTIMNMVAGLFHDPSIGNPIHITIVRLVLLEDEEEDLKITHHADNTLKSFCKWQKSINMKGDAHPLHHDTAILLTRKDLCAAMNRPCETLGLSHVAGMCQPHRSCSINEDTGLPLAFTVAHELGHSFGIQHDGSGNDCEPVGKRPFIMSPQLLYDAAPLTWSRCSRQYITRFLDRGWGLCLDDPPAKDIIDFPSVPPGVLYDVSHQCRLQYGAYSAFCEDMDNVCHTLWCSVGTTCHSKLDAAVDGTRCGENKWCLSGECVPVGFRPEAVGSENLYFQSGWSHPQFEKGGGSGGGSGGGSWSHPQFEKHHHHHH
# assay-notes: FRET peptide substrate cleavage by rPro-hCD-FM2 (SEQ ID NO: 2)
# Type: biochemical
# assay-context: approx. 100 nM enzyme, 10 μM peptide substrate
*: point of attachment. K(Quencher) = not defined here; Donor = not defined here; Acm = CC(=O)NC*
measured-endpoint: kcat, Enzyme SEQ ID NO: 2: rPro-hCD-FM2 (s⁻¹)

[
  {
    "substance": "(HiLyteFluor-488)-KVTEENKELANELRR-K (QXL520)-NH2 ({HiLyteFluor‑488}-KVTEENKELANELRRK(QXL520)-NH2) [TSP1-3, FRET candidate peptide, TSP1 amino acids 300-314]",
    "unit-info": "s⁻¹",
    "assay-result": "2e-05"
  },
  {
    "substance": "(Donor) SPGFRCEACPPGYS (K-Quencher) (Donor-SPGFRC(Acm)EAC(Acm)PPGYS-{K(Quencher)}; reading uncertain; also: printed as (Donor) SPGFRCEACPPGYS (K-Quencher)) [COMP2, FRET candidate peptide, COMP amino acids 146-159, Acm modified cysteines]",
    "unit-info": "s⁻¹",
    "assay-result": "6.5e-06"
  },
  {
    "substance": "(HiLyteFluor-488)-SSMVLELRGLRT-K(QXL520)-NH2 ({HiLyteFluor‑488}-SSMVLELRGLRTK(QXL520)-NH2) [TSP1-5, FRET peptide substrate, TSP1 amino acids 278-289]",
    "unit-info": "s⁻¹",
    "assay-result": "3.5e-05"
  }
]

* * *

# experimental-system: rADAMTS7 (1-575) (Rattus norvegicus)
# Construct: Flag (C); made in house; host or cells: Expi293 cells
# Sequence (Q1EHB3 with tags, fused parts or gaps): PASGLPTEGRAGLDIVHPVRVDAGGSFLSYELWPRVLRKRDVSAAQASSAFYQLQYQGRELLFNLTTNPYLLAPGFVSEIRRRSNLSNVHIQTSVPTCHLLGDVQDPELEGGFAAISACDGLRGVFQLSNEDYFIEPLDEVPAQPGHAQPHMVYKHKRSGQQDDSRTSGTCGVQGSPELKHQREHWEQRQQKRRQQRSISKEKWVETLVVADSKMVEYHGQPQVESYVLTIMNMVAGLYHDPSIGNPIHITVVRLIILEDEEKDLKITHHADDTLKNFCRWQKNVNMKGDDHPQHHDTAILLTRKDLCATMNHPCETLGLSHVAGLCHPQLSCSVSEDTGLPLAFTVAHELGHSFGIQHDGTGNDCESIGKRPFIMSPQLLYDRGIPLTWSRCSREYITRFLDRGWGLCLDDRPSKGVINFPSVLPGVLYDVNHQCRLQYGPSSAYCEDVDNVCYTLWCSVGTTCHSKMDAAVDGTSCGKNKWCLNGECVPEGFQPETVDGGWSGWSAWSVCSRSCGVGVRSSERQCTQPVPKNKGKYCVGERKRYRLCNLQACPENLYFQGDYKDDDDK
# assay-notes: FRET peptide substrate cleavage by rADAMTS7 (1-575) (SEQ ID NO: 3)
# Format: biochemical
# assay-context: approx. 100 nM enzyme, 10 μM peptide substrate
donor fluorophore = not defined here; K(quencher) = not defined here
measured-endpoint: kcat, Enzyme SEQ ID NO: 3: rADAMTS7 (1-575) (s⁻¹)

[
  {
    "substance": "(HiLyteFluor-488)-SSMVLELRGLRT-K(QXL520)-NH2 ({HiLyteFluor‑488}-SSMVLELRGLRTK(QXL520)-NH2) [TSP1-5, FRET peptide substrate, TSP1 amino acids 278-289]",
    "experimental-system": "rADAMTS7 (1-575) (Rattus norvegicus)",
    "assay-result": "4.17e-05"
  },
  {
    "substance": "(Donor) GMQQSVRTGLPS (K-Quencher) ({donor fluorophore}-GMQQSVRTGLPS-{K(quencher)}; reading uncertain; also: donor fluorophore and quencher not given here, printed as (Donor) GMQQSVRTGLPS (K-Quencher)) [COMP1, FRET candidate peptide, COMP amino acids 73-84]",
    "experimental-system": "rADAMTS7 (1-575) (Rattus norvegicus)",
    "assay-result": "8.17e-06"
  }
]
